Provenance of the data: ChEMBL document CHEMBL1697781

Tested on: Hepatotoxicity
methodDescription: FDA HLAED, serum glutamic pyruvic transaminase (SGPT) increase
conditionSet: human
endpoint: SGPT Increase - Activity Score

molecule | SGPT Increase - Activity Score
CN1CCN(C2=Nc3cc(Cl)ccc3Nc3ccccc32)CC1 | Active
Cn1nnnc1SCC1=C(C(=O)O)N2C(=O)[C@@H](NC(=O)[C@H](O)c3ccccc3)[C@H]2SC1 | Inactive
CC1=C(CC(=O)O)c2cc(F)ccc2/C1=C\c1ccc([S+](C)[O-])cc1 (stereo unspecified) | Inactive
CC(C(=O)O)c1ccc(C(=O)c2cccs2)cc1 (stereo unspecified) | Inactive
O=C(O)P(=O)(O)O | Active

Next up:
Which SGPT Increase - Activity Score value belongs to O=C1CN=C(c2ccccc2)c2cc(Cl)ccc2N1CC1CC1 ?
Inactive

* * *

Test system: Hepatotoxicity
methodDescription: FDA HLAED, serum glutamic pyruvic transaminase (SGPT) increase
conditionSet: human
endpoint: SGPT Increase - Number of Reports

compound | SGPT Increase - Number of Reports
CCOC(=O)OC(C)OC(=O)[C@@H]1N2C(=O)[C@@H](NC(=O)[C@H](N)c3ccccc3)[C@H]2SC1(C)C (stereo partly drawn) [BACAMPICILLIN] | < 4
CCC(=O)O[C@@H](O[P@](=O)(CCCCc1ccccc1)CC(=O)N1C[C@H](C2CCCCC2)C[C@H]1C(=O)O)C(C)C [FOSINOPRIL] | >= 4
CC(C)(C(=O)O)c1ccc(C(O)CCCN2CCC(C(O)(c3ccccc3)c3ccccc3)CC2)cc1 (stereo not drawn) [FEXOFENADINE] | < 4
COc1cc(N)c(Cl)cc1C(=O)NC1CCN(CCCOc2ccc(F)cc2)CC1OC (stereo not drawn) [CISAPRIDE] | >= 4

Using the record for C[C@H](CS)C(=O)N1CCC[C@H]1C(=O)O [CAPTOPRIL] , report its SGPT Increase - Number of Reports.
>= 4

Again, but for CO[C@@]1(NC(=O)CSCC#N)C(=O)N2C(C(=O)O)=C(CSc3nnnn3C)CS[C@@H]21 [CEFMETAZOLE]
< 4

Do the same for Nc1nc2ccc(OC(F)(F)F)cc2s1 [RILUZOLE] please
< 4

And the next one, NC(=O)c1ncn([C@@H]2O[C@H](CO)[C@@H](O)[C@H]2O)n1 [RIBAVIRIN] ?
< 4

* * *

Test system: Hepatotoxicity
methodDescription: FDA HLAED, gamma-glutamyl transferase (GGT) increase
conditionSet: human
endpoint: GGT Increase - Activity Score

molecule | GGT Increase - Activity Score
CCC1=C[C@@H]2CN(C1)Cc1c([nH]c3ccccc13)[C@@](C(=O)OC)(c1cc3c(cc1OC)N(C)[C@H]1[C@@](O)(C(=O)OC)[C@H](OC(C)=O)[C@]4(CC)C=CCN5CC[C@]31[C@@H]54)C2 | Inactive
Cn1cc([S+](C)[O-])c(=O)c2ccc(F)cc21 (configuration not stated) | Inactive
Fc1ccccc1C1=NCC(=S)N(CC(F)(F)F)c2ccc(Cl)cc21 | Inactive
CCC(C)n1ncn(-c2ccc(N3CCN(c4ccc(OCC5COC(Cn6cncn6)(c6ccc(Cl)cc6Cl)O5)cc4)CC3)cc2)c1=O (configuration not stated) | Active
COc1cccc2c1C(=O)c1c(O)c3c(c(O)c1C2=O)C[C@@](O)(C(C)=O)C[C@@H]3O[C@H]1C[C@H](N)[C@H](O)[C@H](C)O1 | Inactive
COc1cc(N)c(Cl)cc1C(=O)NC1CCN(CCCOc2ccc(F)cc2)CC1OC (configuration not stated) [CISAPRIDE] | Inactive

I'd like to know its GGT Increase - Activity Score. The molecule in question is CC(C)C(=O)Nc1ccc([N+](=O)[O-])c(C(F)(F)F)c1 [FLUTAMIDE]
Active
